target: HLA-A*30:01; experiment: IEDB peptide-MHC binding, purified MHC/competitive/fluorescence; filed as Kd, often an IC50 or EC50 that approximates it; bounds were set here for any values at or beyond the usual limits of such assays; details: source organism: Encephalitozoon cuniculi GB-M1

POLYMER_SEQUENCE	UNIT	Kd
RVLENTHIF	nM	222

* * *

target: HLA-B*58:01; assay: IEDB peptide-MHC binding, purified MHC/direct/fluorescence; filed as Kd, often an IC50 or EC50 that approximates it; bounds were set here for any values at or beyond the usual limits of such assays; conditions: source organism: Histophilus somni
pKd: −log10 of the molar value.

POLYMER_SEQUENCE	pKd
QYPAFVLFI	≤ 4.70

* * *

target: HLA-A*31:01; assay: IEDB peptide-MHC binding, purified MHC/competitive/fluorescence; filed as Kd, often an IC50 or EC50 that approximates it; bounds were set here for any values at or beyond the usual limits of such assays; conditions: source organism: dengue virus type 4
pKd: −log10 of the molar value.

POLYMER_SEQUENCE	pKd
KVASAGISY	≤ 4.70

* * *

target: HLA-A*02:02; assay: IEDB peptide-MHC binding, purified MHC/competitive/radioactivity; filed as Kd, often an IC50 or EC50 that approximates it; bounds were set here for any values at or beyond the usual limits of such assays; details: source organism: Vaccinia virus WR
pKd: −log10 of the molar value.

POLYMER_SEQUENCE	INEQUALITY_SYMBOL	pKd
GVLPEETNI	=	4.76
SLEATFIDV	=	7.46
MISTYPGNT	=	5.26
FTKDGKLDDT	=	6.84
LTSNCTRTT	≤	4.11
FLTGTFVTA	=	8.33
IICEDAMYYA	=	7.62
YVILKDPRI	=	5.81
IALCKVTVPT	=	5.71
RIYCSLFKNV	=	6.04
NIFMTLVPV	=	7.06

* * *

target: HLA-B*44:03; assay: IEDB peptide-MHC binding, purified MHC/competitive/radioactivity; filed as Kd, often an IC50 or EC50 that approximates it; bounds were set here for any values at or beyond the usual limits of such assays; conditions: source organism: Mammarenavirus guanaritoense
MEASURED_ENDPOINT: Kd

POLYMER_SEQUENCE	REPORTED_RESULT
ADSLDFTQV	≥ 33.3 µM
RDLVISDSS	≥ 35.8 µM
PEFDWILGW	0.0274 µM

* * *

biological target: HLA-A*26:02; assay: IEDB peptide-MHC binding, purified MHC/direct/fluorescence; filed as Kd, often an IC50 or EC50 that approximates it; bounds were set here for any values at or beyond the usual limits of such assays; settings: source organism: Vibrio cholerae V52
pKd: −log10 of the molar value.

POLYMER_SEQUENCE	TARGET_UNDER_TEST	pKd
DIIWHLNDL	HLA-A*26:02	8.52

* * *

target: HLA-A*69:01; assay: IEDB peptide-MHC binding, purified MHC/direct/fluorescence; filed as Kd, often an IC50 or EC50 that approximates it; bounds were set here for any values at or beyond the usual limits of such assays; conditions: source organism: Rickettsia prowazekii
MEASURED_ENDPOINT: Kd (µM)

POLYMER_SEQUENCE	INEQUALITY_SYMBOL	REPORTED_RESULT
ELYPTVNTY	=	14.5
VVNYDNSTK	≥	20
